System: Staphylococcus aureus
Experiment: Antibacterial activity against Staphylococcus aureus RN4220 after 24 hrs by broth microdilution method
Assay type: functional
Settings: RN4220, 24 h
Recorded MIC values for a group of compounds are listed next.
Write the number in µg/mL without appending the unit.

See these solved cases before continuing.
>  <compound>
Cc1ccc(COc2ccc3nc(Cl)c(/C=C4\SC(=S)N([C@@H](CC(C)C)C(=O)O)C4=O)cc3c2)cc1

>  <testSystem>
Staphylococcus aureus

>  <MIC / µg/mL>
1

$$$$
>  <compound>
CCC(C)[C@@H](C(=O)O)N1C(=O)/C(=C/c2cc3cc(OCc4ccccc4F)ccc3nc2Cl)SC1=S (some centres undefined)

>  <testSystem>
Staphylococcus aureus

>  <MIC / µg/mL>
2

$$$$
>  <compound>
CCC(C)[C@@H](C(=O)O)N1C(=O)/C(=C/c2cc3cc(OCc4cccc(Cl)c4)ccc3nc2Cl)SC1=S (some centres undefined)

>  <testSystem>
Staphylococcus aureus

>  <MIC / µg/mL>
2

$$$$

Now consider a different compound.
Lab note: measured MIC of "O=C(O)[C@H](Cc1ccccc1)N1C(=O)/C(=C/c2cc3cc(OCc4ccc(Cl)cc4)ccc3nc2Cl)SC1=S" was 4

* * *

System: Staphylococcus aureus
Assay: Antibacterial activity against Staphylococcus aureus RN4220 after 24 hrs by broth microdilution method
Assay type: functional
Details: RN4220, 24 h
measurementType: MIC
Phrase the answer as number then unit, nothing more needed.

>  <smilesStr>
O=C(O)[C@H](Cc1ccccc1)N1C(=O)/C(=C/c2cc3cc(OCc4cccc(Cl)c4)ccc3nc2Cl)SC1=S

>  <testSystem>
Staphylococcus aureus

>  <MIC>
2 µg/mL

$$$$
>  <smilesStr>
CC(C)C[C@@H](C(=O)O)N1C(=O)/C(=C/c2cc3cc(OCc4ccc(F)cc4)ccc3nc2Cl)SC1=S

>  <testSystem>
Staphylococcus aureus

>  <MIC>
2 µg/mL

$$$$

For the molecule "Cc1onc(-c2ccccc2)c1C(=O)N[C@@H]1C(=O)N2[C@@H]1SC(C)(C)[C@@H]2C(=O)O" , the measured MIC on Staphylococcus aureus was 1 µg/mL

For the molecule "O=C(O)[C@H](Cc1ccccc1)N1C(=O)/C(=C/c2cc3cc(OCc4ccccc4Br)ccc3nc2Cl)SC1=S" , the measured MIC on Staphylococcus aureus was 4 µg/mL
